STUDY SYSTEM: High affinity 3',5'-cyclic-AMP phosphodiesterase 7A (Homo sapiens, UniProt Q13946)
Sequence (Q13946 whole entry): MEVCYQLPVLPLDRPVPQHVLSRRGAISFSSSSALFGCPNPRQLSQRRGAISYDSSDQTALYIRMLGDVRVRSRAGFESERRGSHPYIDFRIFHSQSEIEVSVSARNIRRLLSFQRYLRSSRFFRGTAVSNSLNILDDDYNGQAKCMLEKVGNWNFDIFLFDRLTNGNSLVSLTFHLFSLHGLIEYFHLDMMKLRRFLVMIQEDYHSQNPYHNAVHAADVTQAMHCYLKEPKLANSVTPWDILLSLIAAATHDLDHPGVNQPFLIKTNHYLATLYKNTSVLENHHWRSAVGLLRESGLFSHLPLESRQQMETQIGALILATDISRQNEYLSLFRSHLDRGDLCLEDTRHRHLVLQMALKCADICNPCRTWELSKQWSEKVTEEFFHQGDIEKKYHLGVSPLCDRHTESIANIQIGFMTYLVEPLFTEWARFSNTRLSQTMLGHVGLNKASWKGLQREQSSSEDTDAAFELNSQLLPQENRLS
ASSAY PROCEDURE: Inhibition of human recombinant PDE7A1 assessed as inhibition of hydrolysis of [3H]cAMP at 10 uM after 20 mins by scintillation proximity assay
OUTCOME MEASURE: inhibition (%)

SMILES TEXT | READING UNIT | ENDPOINT RESULT
O=[N+]([O-])c1ccsc1Sc1sccc1[N+](=O)[O-] | % | 31
CC(=O)Nc1ccccc1Sc1cc(Cl)ccc1[N+](=O)[O-] | % | 58
CC(=O)c1ccc(Sc2ccncc2)c([N+](=O)[O-])c1 | % | 56
O=[N+]([O-])c1ccc(Sc2ccncc2)c(Cl)c1 | % | 85
Nc1ccc(Sc2ccc([N+](=O)[O-])c(Cl)c2)cc1 | % | 79
O=[N+]([O-])c1ccc(Sc2ccccn2)c(Cl)c1 | % | 69
O=[N+]([O-])c1ccc(Cl)cc1Sc1ccccc1Br | % | 69

Numbers sourced from ChEMBL document CHEMBL3352280.
